The origin of these recorded values is patent US20180037644A1.

Below, each entry is listed alongside its reported % inhibition 0.1 nM Ab, HEK293 ST2 NFkB.
Target: T1, native human IL-33 from human lung fibroblast (HFL-1) lysate (human, UniProt O95760 1-270, limits assumed)
T1 sequence (looked up): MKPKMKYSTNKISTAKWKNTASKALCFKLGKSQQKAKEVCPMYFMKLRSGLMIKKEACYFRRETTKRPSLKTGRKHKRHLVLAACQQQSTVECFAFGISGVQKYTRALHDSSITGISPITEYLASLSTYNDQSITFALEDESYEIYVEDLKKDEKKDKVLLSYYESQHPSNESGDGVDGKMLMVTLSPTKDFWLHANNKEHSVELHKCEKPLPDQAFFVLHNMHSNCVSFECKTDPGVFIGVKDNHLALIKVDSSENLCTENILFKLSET
Assay: cell-based or functional assay
quantity_kind: % inhibition 0.1 nM Ab, HEK293 ST2 NFkB (%)

rat 30A1 (30A1 hybridoma) (antibody, V domains shown) VH: QVNLLQSGATLVKPGASMKMSCKASGYSFTDYWVSWVKQSHGKSLEWIGEIYPNSGANNFNKEFKDKATLTVDKSTSTAYMELTRLTSEDSAVYYCTRGPYYYSSQIIFAYWGQGTLVTVSS VL: IIVMTQSPKSMSISVGDRVTMNCKASQNVGNNIAWYRQKPGQSPELLIYYASNRYTGVPDRFTGGGYGTDFTLTINSVQAEDAAFYYCQRIYNSPPTFGGGTKVELK :: 35.4
30B11 chimera/hu J (antibody, human IgG1, kappa, V domains shown, also called 30B11 hu Jseg) VH: QVKLLQSGAALVKPGASVKMSCATSGFSFTDYWVSWVKQSHGKGLEWIGEIYPNSGADNFNENFKGKATLTVDKSTSTAYMELSRLTSEDSAIYYCTRGPYYYSTQIIFAYWGQGTLVTVSS VL: NIVMTQSPKSMSISVGDRVTMNCKASQNVGNNLAWYQQKPGQSPKLLIYYASNRYTGVPDRFTGGGYGTDFTLTINSVQAEDAAFYYCQRIYNSPPTFGGGTKVEIKR :: 102
rat 7E8 (7E8 hybridoma) (antibody, V domains shown) VH: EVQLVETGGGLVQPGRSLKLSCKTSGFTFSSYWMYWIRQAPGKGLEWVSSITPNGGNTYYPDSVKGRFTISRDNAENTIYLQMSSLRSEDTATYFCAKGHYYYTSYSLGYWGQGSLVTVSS VL: EIQMTQSPSVLSASVGDRVTLSCKASQNINKHLDWYQQKLGEAPKLLIYFTNNLQTGIPSRFSGSGSGTDCTLTINSLQPGDVATYFCFQYNNGWTFGGGTKLELD :: 112
